Below is a list of entries, each paired with its recorded inhibition at 0.2 µM value.
Target: canine TRPM8 (Canis lupus familiaris)
Test: In vitro canine TRPM8 functional assay (Ca2+-sensitive fluorescent dye, icilin activation)
Format: cell-based
Conditions: HEK293, 0.2 μM compound; HEK293 cells stably expressing canine TRPM8; icilin-induced Ca2+ response
Structures can show the parent of a compound that is named as a salt.
Field format: number, assumed %, no unit text.

Some compounds with recorded inhibition at 0.2 µM:
Compound: CN1CCN(c2nc(-c3ccccc3C(F)(F)F)cc3nc(-c4c(C#N)c(C(C)(C)C)nn4C)[nH]c23)CC1 [Compound 24]
System tested: canine TRPM8 (Canis lupus familiaris)
Unit of measure: %
Reading: 99
--
Compound: Cn1nc(C(C)(C)C)c(Cl)c1-c1nc2cc(-c3ccccc3Cl)nc(OCC(=O)O)c2[nH]1 [Compound 87]
System tested: canine TRPM8 (Canis lupus familiaris)
Unit of measure: %
Reading: 72
--
Compound: CN1CCN(c2nc(-c3ccccc3C(F)(F)F)cc3nc(-c4c(Cl)c(C(C)(C)C)nn4C)[nH]c23)CC1 [Compound 28]
System tested: canine TRPM8 (Canis lupus familiaris)
Unit of measure: %
Reading: 99
--
Compound: COCCOc1cc(-c2ccccc2C(F)(F)F)nc2nc(-c3c(Cl)c(C(C)(C)C)nn3C)[nH]c12 [Compound 76]
System tested: canine TRPM8 (Canis lupus familiaris)
Unit of measure: %
Reading: 98
--
Compound: CN1CCN(CCOc2nc(-c3ccccc3Cl)cc3nc(-c4c(Cl)c(C(C)(C)C)nn4C)[nH]c23)CC1 [Compound 55]
System tested: canine TRPM8 (Canis lupus familiaris)
Unit of measure: %
Reading: 95

Problem: Item Cn1nc(C(C)(C)C)c(Cl)c1-c1nc2cc(-c3ccccc3C(F)(F)F)nc(OCCN3CCCC3)c2[nH]1 [Compound 52] : provide inhibition at 0.2 µM
Result: 80

Problem: Item Cn1nc(C(C)(C)C)c(Cl)c1-c1nc2nc(-c3ccccc3Cl)ccc2[nH]1 [Compound 23, hydrochloride] : provide inhibition at 0.2 µM
Result: 96

Problem: Item Cn1nc(C(C)(C)C)c(Cl)c1-c1nc2nc(-c3ccccc3OC(F)(F)F)ccc2[nH]1 [Compound 25, hydrochloride] : provide inhibition at 0.2 µM
Result: 100

Problem: Item Cn1nc(C(C)(C)C)cc1-c1nc2cc(-c3ccccc3OC(F)(F)F)ncc2[nH]1 [Compound 39, hydrochloride] : provide inhibition at 0.2 µM
Result: 69

* * *

Target: canine TRPM8 (Canis lupus familiaris)
Test: In vitro canine TRPM8 functional assay (Ca2+-sensitive fluorescent dye, icilin activation)
Assay type: cell-based
Conditions: HEK293 cells stably expressing canine TRPM8; icilin-induced Ca2+ response; eight-point concentration-response
Where a name gives a salt, the structure may show the parent alone.
Below is a list of entries, each paired with its recorded IC50 value.
Kindly write the number and append the unit.

Some molecules with recorded IC50:
Molecule: Cn1nc(C(C)(C)C)c(C#N)c1-c1nc2cc(-c3ccccc3F)ncc2[nH]1 [Compound 44, hydrochloride]
IC50: 37 nM
//
Molecule: CC(C)(C)c1cc(-c2nc3nc(-c4ccccc4C(F)(F)F)cc(Cl)c3[nH]2)on1 [Compound 7]
IC50: 38 nM
//
Molecule: CN(C)CCOc1nc(-c2ccccc2C(F)(F)F)cc2nc(-c3c(Cl)c(C(C)(C)C)nn3C)[nH]c12 [Compound 53]
IC50: 27 nM
//
Molecule: Cn1nc(C(C)(C)C)c(Cl)c1-c1nc2nc(-c3ccccc3C(F)(F)F)cnc2[nH]1 [Compound 95]
IC50: 27 nM
//
Molecule: CC(C)(C)c1cc(-c2nc3nc(-c4ccccc4Cl)ccc3[nH]2)on1 [Compound 26]
IC50: 35 nM

Problem: Give IC50 for COc1nc(-c2ccccc2Cl)cc2nc(-c3csc(C(C)C)c3)[nH]c12 [Compound 98] tested on canine TRPM8 (Canis lupus familiaris).
Result: 14 nM

Problem: Give IC50 for Cn1nc(C(C)(C)C)cc1-c1nc2cc(-c3ccccc3OC(F)(F)F)ncc2[nH]1 [Compound 39, hydrochloride] tested on canine TRPM8 (Canis lupus familiaris).
Result: 75 nM

Problem: Give IC50 for COc1nc(-c2ccccc2Cl)cc2nc(-c3c(C#N)c(C(C)(C)C)nn3C)[nH]c12.CS(=O)(=O)O [Compound 17] tested on canine TRPM8 (Canis lupus familiaris).
Result: 1.7 nM

* * *

Below is a list of entries, each paired with its recorded inhibition at 0.2 µM value.
Molecular target: canine TRPM8 (Canis lupus familiaris, UniProt Q1A7N1)
Sequence (Q1A7N1 1-1104): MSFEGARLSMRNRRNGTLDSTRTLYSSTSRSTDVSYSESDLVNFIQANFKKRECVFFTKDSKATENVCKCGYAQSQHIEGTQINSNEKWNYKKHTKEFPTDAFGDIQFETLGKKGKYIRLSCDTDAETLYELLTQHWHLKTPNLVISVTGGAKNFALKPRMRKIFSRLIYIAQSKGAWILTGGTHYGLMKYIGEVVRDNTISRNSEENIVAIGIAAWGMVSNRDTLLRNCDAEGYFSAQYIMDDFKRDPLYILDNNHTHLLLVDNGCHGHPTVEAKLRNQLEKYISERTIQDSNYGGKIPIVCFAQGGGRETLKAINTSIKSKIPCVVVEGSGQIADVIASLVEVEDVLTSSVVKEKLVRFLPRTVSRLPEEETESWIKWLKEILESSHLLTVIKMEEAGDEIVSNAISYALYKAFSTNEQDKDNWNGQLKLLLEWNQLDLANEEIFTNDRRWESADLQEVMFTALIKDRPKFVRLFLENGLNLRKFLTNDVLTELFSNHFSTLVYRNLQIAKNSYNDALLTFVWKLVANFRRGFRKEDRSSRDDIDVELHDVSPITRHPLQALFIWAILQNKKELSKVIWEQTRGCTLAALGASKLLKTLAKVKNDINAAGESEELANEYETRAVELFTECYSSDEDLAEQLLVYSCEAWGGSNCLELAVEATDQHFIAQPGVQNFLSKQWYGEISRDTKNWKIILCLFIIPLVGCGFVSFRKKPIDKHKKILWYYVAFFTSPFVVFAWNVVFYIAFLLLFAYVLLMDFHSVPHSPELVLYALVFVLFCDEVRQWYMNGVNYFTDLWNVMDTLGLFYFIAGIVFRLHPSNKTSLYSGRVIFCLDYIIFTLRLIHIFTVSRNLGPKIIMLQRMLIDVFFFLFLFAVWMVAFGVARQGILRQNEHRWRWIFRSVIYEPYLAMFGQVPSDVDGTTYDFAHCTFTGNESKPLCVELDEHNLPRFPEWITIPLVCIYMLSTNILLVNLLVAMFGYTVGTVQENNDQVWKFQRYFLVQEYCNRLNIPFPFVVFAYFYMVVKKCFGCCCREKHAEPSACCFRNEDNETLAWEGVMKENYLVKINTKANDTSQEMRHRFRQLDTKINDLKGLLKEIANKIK
Experiment: In vitro canine TRPM8 functional assay (Ca2+-sensitive fluorescent dye, icilin activation)
Type: cell-based
Conditions: 0.2 μM compound; HEK293 cells stably expressing canine TRPM8; icilin-induced Ca2+ response
Where a name gives a salt, the structure may show the parent alone.
Field format: number, assumed %, no unit text.

Some molecules with recorded inhibition at 0.2 µM:
Molecule: Cn1nc(C(C)(C)C)c(Cl)c1-c1nc2cc(-c3ccccc3OC(F)(F)F)nc(OCC(F)(F)F)c2[nH]1 [Compound 90, sodium salt]
System tested: canine TRPM8 (Canis lupus familiaris, UniProt Q1A7N1)
Unit of measure: %
Reading: 99
--
Molecule: COc1nc(-c2ccccc2Cl)cc2nc(-c3c(C#N)c(C(C)(C)C)nn3C)[nH]c12.CS(=O)(=O)O
System tested: canine TRPM8 (Canis lupus familiaris, UniProt Q1A7N1)
Unit of measure: %
Reading: 99
--
Molecule: Cn1nc(C(C)(C)C)c(C#N)c1-c1nc2cc(-c3ccccc3F)ncc2[nH]1 [Compound 44, hydrochloride]
System tested: canine TRPM8 (Canis lupus familiaris, UniProt Q1A7N1)
Unit of measure: %
Reading: 98
--
Molecule: CN1CCN(CCOc2nc(-c3ccccc3C(F)(F)F)cc3nc(-c4c(Cl)c(C(C)(C)C)nn4C)[nH]c23)CC1
System tested: canine TRPM8 (Canis lupus familiaris, UniProt Q1A7N1)
Unit of measure: %
Reading: 91
--
Molecule: CC(C)(C)c1cc(-c2nc3nc(-c4ccccc4C(F)(F)F)ccc3[nH]2)on1
System tested: canine TRPM8 (Canis lupus familiaris, UniProt Q1A7N1)
Unit of measure: %
Reading: 100
--
Molecule: Cn1nc(C(C)(C)C)c(Cl)c1-c1nc2cc(-c3ccccc3C(F)(F)F)nc(OCCN3CCOCC3)c2[nH]1
System tested: canine TRPM8 (Canis lupus familiaris, UniProt Q1A7N1)
Unit of measure: %
Reading: 100

Problem: Give inhibition at 0.2 µM for Cn1nc(C(C)(C)C)c(Cl)c1-c1nc2cc(-c3ccccc3C(F)(F)F)ncc2[nH]1 [Compound 46, hydrochloride] tested on canine TRPM8 (Canis lupus familiaris, UniProt Q1A7N1).
Result: 99

Problem: Give inhibition at 0.2 µM for COc1nc(-c2ccccc2OC(F)(F)F)cc2nc(-c3c(Cl)c(C(C)(C)C)nn3C)[nH]c12 [Compound 2, sodium salt] tested on canine TRPM8 (Canis lupus familiaris, UniProt Q1A7N1).
Result: 100

Problem: Give inhibition at 0.2 µM for "Cn1nc(C(C)(C)C)c(Cl)c1-c1nc2cc(-c3ccccc3Cl)nc(OCCN3CCCC3)c2[nH]1" tested on canine TRPM8 (Canis lupus familiaris, UniProt Q1A7N1).
Result: 88

Problem: Give inhibition at 0.2 µM for "COc1nc(-c2ccccc2C(F)(F)F)cc2nc(-c3c(F)c(C(C)(C)C)nn3C)[nH]c12" tested on canine TRPM8 (Canis lupus familiaris, UniProt Q1A7N1).
Result: 100

Problem: Give inhibition at 0.2 µM for CC(C)Oc1nc(-c2ccccc2F)cc2nc(-c3c(Cl)c(C(C)(C)C)nn3C)[nH]c12 [Compound 92, sodium salt] tested on canine TRPM8 (Canis lupus familiaris, UniProt Q1A7N1).
Result: 99

Problem: Give inhibition at 0.2 µM for "CN(C)CCOc1nc(-c2ccccc2Cl)cc2nc(-c3c(Cl)c(C(C)(C)C)nn3C)[nH]c12" tested on canine TRPM8 (Canis lupus familiaris, UniProt Q1A7N1).
Result: 99

Problem: Give inhibition at 0.2 µM for "CC(C)Oc1nc(-c2ccccc2C(F)(F)F)cc2nc(-c3c(C#N)c(C(C)(C)C)nn3C)[nH]c12" tested on canine TRPM8 (Canis lupus familiaris, UniProt Q1A7N1).
Result: 99

Problem: Give inhibition at 0.2 µM for Cn1nc(C(C)(C)C)c(Cl)c1-c1nc2nc(-c3ccccc3C(F)(F)F)cc(Cl)c2[nH]1 [compound 5, hydrochloride] tested on canine TRPM8 (Canis lupus familiaris, UniProt Q1A7N1).
Result: 99

Problem: Give inhibition at 0.2 µM for Cn1nc(C(C)(C)C)c(C#N)c1-c1nc2cc(-c3ccccc3C(F)(F)F)nc(Cl)c2[nH]1 [Compound 75, Hydrochloride] tested on canine TRPM8 (Canis lupus familiaris, UniProt Q1A7N1).
Result: 100

Problem: Give inhibition at 0.2 µM for "COCCOc1nc(-c2ccccc2C(F)(F)F)cc2nc(-c3c(Cl)c(C(C)(C)C)nn3C)[nH]c12" tested on canine TRPM8 (Canis lupus familiaris, UniProt Q1A7N1).
Result: 99
